Listed below: residual activity values for each entry.
Target: NEK2 (human) (UniProt P51955)
Sequence (P51955 whole entry, looked up): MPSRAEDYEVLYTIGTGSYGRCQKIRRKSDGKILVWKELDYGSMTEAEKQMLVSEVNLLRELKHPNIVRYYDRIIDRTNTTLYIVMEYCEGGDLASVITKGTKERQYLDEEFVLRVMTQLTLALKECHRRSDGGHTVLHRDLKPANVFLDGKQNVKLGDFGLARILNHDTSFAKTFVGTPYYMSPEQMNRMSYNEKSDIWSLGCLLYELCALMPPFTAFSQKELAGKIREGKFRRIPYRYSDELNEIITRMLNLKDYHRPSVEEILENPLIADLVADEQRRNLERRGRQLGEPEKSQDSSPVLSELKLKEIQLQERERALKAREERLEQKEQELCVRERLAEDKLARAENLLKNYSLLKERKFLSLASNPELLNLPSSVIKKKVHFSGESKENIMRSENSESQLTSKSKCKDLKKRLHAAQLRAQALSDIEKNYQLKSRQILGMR
Assay: radiometric filter-binding kinase assay, Kinase HotSpot
Details: compound 0.5 µM; ATP 10 µM
Express it in %; write the number only.

Answered examples (3):
{"smiles_representation": "Cc1cncc2cccc(S(=O)(=O)N3CCCN(C(=O)CN)C[C@H]3C)c12", "target_or_system": "NEK2 (human) (UniProt P51955)", "reading_unit": "%", "residual activity": 105}
{"smiles_representation": "NC(=O)c1cccc(-c2cc(Nc3ccc(OC(F)(F)F)cc3)ncn2)c1", "target_or_system": "NEK2 (human) (UniProt P51955)", "reading_unit": "%", "residual activity": 95.6}
{"smiles_representation": "CS(=O)(=O)CCNCc1ccc(-c2ccc3ncnc(Nc4ccc(OCc5cccc(F)c5)c(Cl)c4)c3c2)o1", "target_or_system": "NEK2 (human) (UniProt P51955)", "reading_unit": "%", "residual activity": 118}

For the compound "N#Cc1c[nH]c2c[nH]/c(=N\Cc3cccnc3)cc2/c1=N\c1ccc(F)c(Cl)c1" , give its measured residual activity value.
75.2

For the compound "Cn1c2ccccc2c2c3c(c4c5ccccc5n(CCC#N)c4c21)CNC3=O" , give its measured residual activity value.
89.9

For the compound "CC(C)(C)c1cc(C=C(C#N)C#N)cc(Br)c1O" , give its measured residual activity value.
96

For the compound "COc1cc2ncnc(Nc3ccc(OCc4ccccc4)cc3)c2cc1OC" , give its measured residual activity value.
107

====

Molecular target: RPS6KA3 KD1 KD2 (human)
Experiment: radiometric filter-binding kinase assay, Kinase HotSpot
Details: compound 0.5 µM; ATP 10 µM
Listed below: residual activity values for each entry.
Express it in %; write the number only.

{"smiles_representation": "O=C1c2ccccc2-c2nc3nnnn3nc21", "result": 75.1}
{"smiles_representation": "CCCCc1c(-c2ccc(OC)cc2)[nH]c2nccnc12", "result": 88}
{"smiles_representation": "CS(=O)(=O)CCNCc1ccc(-c2ccc3ncnc(Nc4ccc(OCc5cccc(F)c5)c(Cl)c4)c3c2)o1", "result": 105}
{"smiles_representation": "COc1ccc(S(=O)(=O)N(CCO)c2ccccc2CN(C)C/C=C/c2ccc(Cl)cc2)cc1", "result": 98}
{"smiles_representation": "COc1ccc2c(c1)c(C1=C(c3c[nH]c4ccccc34)C(=O)NC1=O)cn2CCCN(C)C", "result": 6.55}
{"smiles_representation": "Cc1nc(-c2ccccc2)c(-c2ccncc2)o1", "result": 103}
{"smiles_representation": "Fc1ccc(-c2nc3n(c2-c2ccncc2)CCS3)cc1", "result": 107}
{"smiles_representation": "COc1cc(Nc2c(C#N)cnc3cc(OCCCN4CCN(C)CC4)c(OC)cc23)c(Cl)cc1Cl", "result": 80.1}

For the molecule "CN(C)S(=O)(=O)c1ccc2c(c1)/C(=C/c1cc3c([nH]1)CCCC3)C(=O)N2" , give its measured residual activity value.
70.1

For the molecule "Cn1c2ccccc2c2c3c(c4c5ccccc5n(CCC#N)c4c21)CNC3=O" , give its measured residual activity value.
5.93

====

Biological target: NTRK1 (human) (UniProt P04629)
Sequence (P04629 whole entry, looked up): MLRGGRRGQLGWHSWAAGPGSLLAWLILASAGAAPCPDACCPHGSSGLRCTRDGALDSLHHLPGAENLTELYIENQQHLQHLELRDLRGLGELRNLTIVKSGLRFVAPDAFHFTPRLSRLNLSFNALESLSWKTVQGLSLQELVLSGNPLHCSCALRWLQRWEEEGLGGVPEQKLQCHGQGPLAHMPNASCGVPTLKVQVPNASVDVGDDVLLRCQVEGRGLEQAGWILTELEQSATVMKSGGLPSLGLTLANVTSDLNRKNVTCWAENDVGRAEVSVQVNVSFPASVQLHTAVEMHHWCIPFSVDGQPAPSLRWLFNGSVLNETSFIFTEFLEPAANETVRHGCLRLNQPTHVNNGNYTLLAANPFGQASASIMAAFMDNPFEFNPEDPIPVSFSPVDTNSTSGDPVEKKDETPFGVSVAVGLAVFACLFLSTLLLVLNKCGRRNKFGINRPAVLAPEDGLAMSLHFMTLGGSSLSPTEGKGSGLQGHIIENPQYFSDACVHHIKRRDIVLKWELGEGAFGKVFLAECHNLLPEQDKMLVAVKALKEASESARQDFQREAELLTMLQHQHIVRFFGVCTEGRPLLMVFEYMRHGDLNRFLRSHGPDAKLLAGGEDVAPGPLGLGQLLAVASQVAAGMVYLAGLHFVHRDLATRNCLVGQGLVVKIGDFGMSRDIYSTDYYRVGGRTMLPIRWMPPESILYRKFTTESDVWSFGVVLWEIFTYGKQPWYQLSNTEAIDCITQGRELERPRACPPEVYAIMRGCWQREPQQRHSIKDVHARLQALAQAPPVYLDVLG
Test: radiometric filter-binding kinase assay, Kinase HotSpot
Conditions: compound 0.5 µM; ATP 10 µM
measured_parameter: residual activity (%)
Express it in %; write the number only.

Answered examples (9):
{"smiles_representation": "COc1ccc2c(c1)/C(=C/c1cnc[nH]1)C(O)=N2", "reading_unit": "%", "result": 61.4}
{"smiles_representation": "COc1cc2ncnc(Nc3ccc(OCc4ccccc4)cc3)c2cc1OC", "reading_unit": "%", "result": 97.1}
{"smiles_representation": "CN(C)c1ccc(/C=C2\\C(=O)Nc3ccccc32)cc1", "reading_unit": "%", "result": 96.6}
{"smiles_representation": "Cc1nc(-c2ccccc2)c(-c2ccncc2)o1", "reading_unit": "%", "result": 94.3}
{"smiles_representation": "C[C@@H]1CCN(C(=O)CC#N)C[C@@H]1N(C)c1ncnc2[nH]ccc12", "reading_unit": "%", "result": 94.1}
{"smiles_representation": "Ic1cccc(CSc2nnc(-c3ccncc3)o2)c1", "reading_unit": "%", "result": 96}
{"smiles_representation": "Cc1cncc2cccc(S(=O)(=O)N3CCCN(C(=O)CN)C[C@H]3C)c12", "reading_unit": "%", "result": 100}
{"smiles_representation": "CN(C)S(=O)(=O)c1ccc2c(c1)/C(=C/c1cc3c([nH]1)CCCC3)C(=O)N2", "reading_unit": "%", "result": 24.7}
{"smiles_representation": "COc1ccc(Cl)cc1NC(=O)Nc1cc(C)nc2ccccc12", "reading_unit": "%", "result": 92.5}

Would you kindly look at the next entry?
For the molecule "CO[C@@H]1[C@H](N(C)C(=O)c2ccccc2)C[C@H]2O[C@]1(C)n1c3ccccc3c3c4c(c5c6ccccc6n2c5c31)C(=O)NC4" , give its measured residual activity value.
5.85
